Test: blockers of Ca2+-induced mitochondrial swelling – biochemical, isolated mouse mitochondria, absorbance, primary screen (AID 602449);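 also: 0% = DMSO wells given calcium and 100% = 1 mM EGTA wells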
Conditions: 30 min, at 10 µM
The campaign covered roughly 360,000 compounds. About 5,000 (1.4%) were called active.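 The calls were made as follows: active = inhibition of 50% or more, scaled per plate between neutral and stimulator controls; inactive = the rest.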 Only a selection was taken, and actives are over-represented in it overall.
Possible outcomes: T (active), F (inactive)

| molecule | assigned_category |
| --- | --- |
| Cc1cccc(COc2ccccc2/C=N/Nc2ccc([N+](=O)[O-])cc2)c1 | T |
| CCCCn1c(N)c(N(CC(C)C)C(=O)c2cccc(S(=O)(=O)N3CC(C)OC(C)C3)c2)c(=O)[nH]c1=O (stereo not drawn) | F |
| COc1cccc(-c2cc3nc(NCc4ccccc4OC)n(C)c(=O)c3s2)c1 | F |
| COCCNc1nc(Nc2ccccc2Cl)c2sc(-c3ccccc3)cc2n1 | F |
| CCOC(=O)C1=C(CC)Nc2ccccc2N=C1N | F |
| COc1cccc(CNc2nc(NCc3cccs3)nc3ccsc23)c1 | T |
| COc1cc(SC)ccc1C(=O)Nc1nc(C)cs1 | F |
| Cc1ccccc1OCCOc1ccc([N+](=O)[O-])cc1/C=N/n1cnnc1 | F |
| N/C(=N\S(=O)(=O)c1cc(C(F)(F)F)cc(C(F)(F)F)c1)c1cccs1 | F |
| CCCOCC(O)CC(CC)C(=O)NNC(=S)Nc1ccccc1 (stereo not drawn) | F |
| CSCCC(NC(=O)c1cc([N+](=O)[O-])cc([N+](=O)[O-])c1)c1nc2ccccc2[nH]1 (stereo not drawn) | T |
| CCCC(C)C(=O)OCC(=O)Nc1c(Br)cc(C)cc1Br (stereo not drawn) | F |
| COc1ccc(NS(=O)(=O)c2cc(NC(=O)COc3ccccc3F)ccc2OC)cc1 | F |
| CC12CN(NC(=O)c3ccc(Cl)cc3)C3(C#N)CC1CCC23C (stereo not drawn) | F |
| CCC(=O)OCc1c(C(F)(F)F)nn(C)c1Oc1cccc(C(F)(F)F)c1 | F |
| CC(Cc1cccs1)NC(=O)c1cccc(Cl)c1 (stereo not drawn) | F |
| O=C(Nc1nsc(-c2ccccc2)n1)c1ccncc1 | F |
| Cn1nc(C(F)(F)F)c(C(=O)Nc2cccc(C(F)(F)F)c2)c1SCc1ccc(Cl)cc1 | T |
| COc1cccc(CNc2nc(NCc3ccccc3OC)nc3ccsc23)c1 | T |
| O=c1[nH]c(/C=C/c2cccc(Br)c2)nc2ccccc12 | F |
| O=C(/C(=C/c1cccc(Cl)c1)c1nc2ccccc2[nH]1)c1ccccc1 | T |
| Cc1ccc(NC(=O)CCNC(=O)c2ccc([N+](=O)[O-])cc2)cc1S(=O)(=O)N1CCOCC1 | F |
| COc1cccc(NC(=O)CSc2nnc(Cc3ccc(OC)c(OC)c3)o2)c1 | F |
| CN(C)C(CNC(=O)c1cc2ccccc2o1)c1ccccc1 (stereo not drawn) | F |
| COc1ccc(S(=O)(=O)N2CCN(CC(=O)NCC3(N4CCOCC4)CCCCC3)CC2)cc1 | F |
| CN(Cc1c(F)cccc1Cl)S(=O)(=O)c1cccs1 | F |
| O=[N+]([O-])c1ccc(N=NNc2ccc([N+](=O)[O-])cc2)cc1 | F |
| O=c1c2[nH]c3ccc(Cl)cc3c2ncn1Cc1ccccn1 | F |
| CC(=O)Nc1cc(-c2ccccc2N(C)C)cn2c(-c3ccc(F)c(Cl)c3)cnc12 | F |
| CC[C@@H](C)[C@@H](C(=O)N1CCN(C(=O)OC(C)(C)C)CC1)n1cc(CCC(=O)O)nn1 | F |
| COc1ccc(NC(=S)NCc2cccs2)c(OC)c1 | F |
| COc1cnc(SCc2ccc(Cl)c(Cl)c2)nc1Cl | F |
| COc1ccccc1CNc1nc(Nc2ccccc2Cl)c2sccc2n1 | T |
| CC(C)C[C@H]1CN([C@@H](CC(C)C)CN2CCC[C@@H]2CN2C(=O)C(=O)NC[C@@H]2Cc2ccccc2)C(=O)C(=O)N1CCc1ccccc1 | F |
| O=[N+]([O-])c1ccc(N/N=C/c2ccccc2)cc1 | T |
| CCN(CC)C(=O)Oc1ccc(OC(=O)N(CC)CC)cc1 | F |
| Cc1ccc(C(=O)N/C(=C/c2cccnc2)C(=O)O)cc1 | F |
| CCOC(=O)C1CCCN(C(=O)c2cccc3ccccc23)CC1 (stereo not drawn) | F |
| COc1cccc(C(C(=O)NC2CCCC2)N(C(=O)c2ccco2)c2cccc(C(C)=O)c2)c1OC (stereo not drawn) | F |
| Cc1nn(-c2ccccc2)c2sc(C(=O)N(Cc3ccco3)C(C)C(=O)NC(C)(C)C)cc12 (stereo not drawn) | F |
| CC(C)c1ccc(C=NNc2ccc([N+](=O)[O-])cn2)cc1 | F |
| CSCCC(NC(=O)c1ccc(=O)n(C)n1)c1nc2ccccc2[nH]1 (stereo not drawn) | F |
| COCCCNC(=O)C1CCN(c2ccc(N3CCOCC3)nn2)CC1 | F |

====

Collected inhibition values appear next to each entry.
Test: blockers of Ca2+-induced mitochondrial swelling – biochemical, isolated mouse mitochondria, absorbance, primary screen (AID 602449);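 also: 0% = DMSO wells given calcium and 100% = 1 mM EGTA wells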
Details: 30 min, at 10 µM, hits give high values
Hit rate of the full screen: of about 360,000 compounds, about 5,000 (1.4%) were called active. The list comes from a sample in which actives are over-represented; it also holds close analogues and randomly drawn compounds.

| molecule | inhibition [%] |
| --- | --- |
| Cc1c(Cl)c([N+](=O)[O-])nn1CC(=O)NCC1CCCO1 (stereo not given) | -1.6 |
| O=C1CCC(C(=O)OCC(=O)Nc2ccc(OC(F)F)cc2)=NN1 | -0.6 |
| CCC(C)(C)NC(=O)CN(C(=O)CCC(=O)Nc1nccs1)c1ccc2c(c1)OCO2 | 0.4 |
| CC(C)(C)c1cc(NC(=O)NN2CCOCC2)nn1-c1c(Cl)cc(Cl)cc1Cl | -1.3 |
| O=C(c1cc(-c2cccc(O)c2)on1)N1CCc2ccccc2C1 | 59.3 |

====

Experiment: blockers of Ca2+-induced mitochondrial swelling – biochemical, isolated mouse mitochondria, absorbance, primary screen (AID 602449);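 also: 0% = DMSO wells given calcium and 100% = 1 mM EGTA wells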
Details: 30 min, at 10 µM
The campaign covered roughly 360,000 compounds. About 5,000 (1.4%) were called active.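 The calls were made as follows: active = inhibition of 50% or more, scaled per plate between neutral and stimulator controls; inactive = the rest.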 For the sample, actives were picked, then their nearest neighbours and some compounds at random.
Possible outcomes: 1 = active, 0 = inactive

| compound | assigned_category |
| --- | --- |
| O=C(Nc1cc(S(=O)(=O)N2CCCCC2)ccc1Cl)C1COc2ccccc2O1 (stereo not given) | 0 |
| O=C(CSc1nc2[nH]c(=O)[nH]c(=O)c2s1)Nc1cccc(F)c1 | 0 |
| COCCNC(=O)Nc1ccc2nc(-c3ccco3)c(-c3ccco3)nc2c1 | 0 |
| CC(=O)c1ccc(NC(=O)Nc2ccc([N+](=O)[O-])cc2C)cc1 | 1 |
| O=C(Nc1nc2c(F)cc(F)cc2s1)C1COc2ccccc2O1 (stereo not given) | 1 |
| Cc1cc(C)c2c(=O)[nH]c(SCC(=O)Nc3ccc(Br)cc3)nc2n1 | 0 |
| Cc1ccc(Nc2nc(CSc3nnc(-c4ccncc4)n3-c3ccccc3C)cs2)cc1 | 0 |
| O=C(Nc1nnc(SCc2ccc(Cl)cc2Cl)s1)C1COc2ccccc2O1 (stereo not given) | 1 |
| N#Cc1c(-c2cccs2)nc(SCC(=O)c2ccc(Br)cc2)[nH]c1=O | 1 |
| COc1cc(NC(=O)Nc2ccc(C)cc2)cc([N+](=O)[O-])c1 | 1 |

====

Assay: blockers of Ca2+-induced mitochondrial swelling – biochemical, isolated mouse mitochondria, absorbance, primary screen (AID 602449);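 also: 0% = DMSO wells given calcium and 100% = 1 mM EGTA wells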
Details: 30 min, at 10 µM, hits give high values
The campaign covered roughly 360,000 compounds. About 5,000 (1.4%) were called active. For the sample, actives were picked, then their nearest neighbours and some compounds at random.
Collected inhibition values appear next to each entry.
property: inhibition (%)

| molecule | unit_abbrev | observed_value |
| --- | --- | --- |
| NC1=NC(=O)C(Cc2cccc(Cl)c2Cl)S1 (stereo not given) | % | 1.7 |
| O=C(O)Cc1ccc(NC(=O)Nc2cccc3ccccc23)cc1 | % | 0.9 |
| Cc1ccc(NC(=S)NC(NC(=O)Cc2cccc3ccccc23)C(Cl)(Cl)Cl)cc1 (stereo not given) | % | 55.5 |
| Cc1ccc(CNC(=O)[C@@H](NC(=O)Cc2ccccc2)C(C)C)cc1 | % | 0.5 |
| COc1ccc(C(=O)NC2(C(F)(F)F)NC(=O)N(CCCc3ccccc3)C2=O)c(OC)c1OC (stereo not given) | % | 11.9 |

====

Assay: blockers of Ca2+-induced mitochondrial swelling – biochemical, isolated mouse mitochondria, absorbance, primary screen (AID 602449);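 also: 0% = DMSO wells given calcium and 100% = 1 mM EGTA wells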
Conditions: 30 min, at 10 µM, hits give high values
About 5,000 (1.4%) of roughly 360,000 compounds were called active. Only a selection was taken, and actives are over-represented in it overall.
property: inhibition (%)

| compound | observed_value |
| --- | --- |
| CNC(=O)c1ccsc1NC(=O)c1ccc(S(=O)(=O)N2CCc3ccccc32)cc1 | 0.6 |
| Cc1ccc(NC(=O)COc2ccc(-n3ccnc3)cc2)cc1Cl | 83.4 |
| CN(c1ccccc1)S(=O)(=O)c1ccc(Cl)c(C(=O)OCC(N)=O)c1 | 1.9 |
| CC(=O)c1c(C)[nH]c(C(=O)COC(=O)c2cccc(S(=O)(=O)N(C)c3ccccc3)c2)c1C | 99.3 |
| NNC(=O)COc1ccc(C2SCCS2)cc1 | -1 |
| CCC(C)NC(=O)c1ccccc1NC(=O)c1ccccc1N(C)S(C)(=O)=O (centres undefined) | 0.4 |
| COc1ccc(/C=C/C(=O)Nc2ccc(C34CC5CC(CC(O)(C5)C3)C4)cc2)cc1OC | -0.1 |
| CCCc1ccc(-c2c(C)sc(NC(=O)c3ccnn3C)c2C#N)cc1 | 99.7 |
| O=C(O)CCCC(=O)Nc1ccc(Oc2cccc(C(F)(F)F)c2)nc1 | 0.9 |
| CC1=C(C(=O)N(C)C)CC(CC(=O)NCCc2ccccn2)C(=O)N1CCC1=CCCCC1 (centres undefined) | -0.3 |
| Cc1cc(C)cc(OCC(=O)Nc2nc3ccc([N+](=O)[O-])cc3s2)c1 | 50.4 |
| Cc1cc(=O)cc(C)n1-c1ccc(Cl)c(Cl)c1 | -0.1 |
| Cc1cc(C)cc(OCC(=O)O/N=C(\N)Cc2ccc([N+](=O)[O-])cc2)c1 | 3.2 |
| Cc1ccc(NC(=O)c2cccc(S(=O)(=O)N3CCCc4ccccc43)c2)nc1 | -1.2 |
| COc1ccc(C(N)c2csc(NC(=O)Nc3cccc(C(F)(F)F)c3)n2)cc1 (centres undefined) | 0.9 |
| COc1ccc(/C=C(/CC(=O)Nc2ccc(C)cc2)c2nc3ccccc3s2)cc1 | 52.2 |
| COc1ccc(NC(=O)COC(=O)c2ccc(NS(=O)(=O)/C=C/c3ccccc3)cc2)cc1 | -9 |
| CC1(C(=O)NNC(=S)NCC2CCCO2)CC1(Cl)Cl (centres undefined) | -1.4 |
| COc1cc2c(C(=O)N3CCN(C)CC3)c(CSc3ccccc3)n(C)c2cc1Br | -3.4 |
| CCN(c1ccccc1)S(=O)(=O)c1ccc(NC(=O)C(C)(C)C)cc1 | -1.2 |
| NS(=O)(=O)c1ccc2nc(NC(=O)C3=COCCO3)sc2c1 | -0.6 |
| Cc1cc(N2CCCC2)ccc1NC(=O)COc1ccc(Cl)cc1 | -0.2 |
| COc1cccc(/C=C(/CC(=O)Nc2ccc(N3CCOCC3)cc2)c2nc3ccccc3s2)c1 | -0.3 |
| CC(=O)c1c(C)[nH]c(C(=O)COC(=O)CCOc2ccc(C)cc2)c1C | -2.4 |
| Cc1cccc(C(=O)Nc2ccc(Oc3cnccn3)cc2)c1 | 0.7 |
| O=C(NC(Nc1nc2ccc([N+](=O)[O-])cc2s1)(C(F)(F)F)C(F)(F)F)c1ccccc1 | 93.7 |
| c1ccc(-c2cn3c(n2)CCc2ccc4cccnc4c2-3)cc1 | -2 |
| Cc1cc(S(=O)(=O)N2CCOCC2)ccc1OCC(=O)Nc1cccc(C(F)(F)F)c1 | -0.9 |
| CC1=C(C/C=C(\C)CCCC(C)CCCC(C)CCCC(C)C)C(=O)c2ccccc2C1=O (centres undefined) | -2.2 |
| CCCc1cc(=O)[nH]c(SCC(=O)Nc2sc3c(c2C#N)CCCC3)n1 | 4 |
| CSc1ncccc1C(=O)Nc1nc2ccc(F)cc2s1 | 5.6 |
| N#Cc1cc([N+](=O)[O-])ccc1NC(=O)COC(=O)c1cnccn1 | -1.8 |
| CCOC(=O)NC(C(F)(F)F)(C(F)(F)F)P(=O)(c1ccccc1)c1ccccc1 | -3.1 |
| CCNS(=O)(=O)c1ccc(NC(=O)Nc2cccc(C(F)(F)F)c2)cc1 | 93.6 |
